Assay: Tmax in Sprague-Dawley rat at 10 mg/kg,po measured upto 24 hrs by LC-MS analysis
Type: ADME, organism-based
Conditions: in vivo
reported-metric: Tmax (h)

Answered cases to consult:
* Cc1cc(-c2c[nH]c3ncc(-c4ccc(N5CCN(c6cccc7c6C(=O)N(C6CCC(=O)NC6=O)C7=O)CC5)cc4)nc23)ccc1C(=O)N(C)C (stereo not given) | 1
* Cc1cc(-c2c[nH]c3ncc(-c4ccc(N5CCN(CC6CN(c7ccc8c(c7)C(=O)N(C7CCC(=O)NC7=O)C8=O)C6)CC5)cc4)nc23)ccc1C(=O)N(C)C (stereo not given) | 3

(P) Cc1cc(-c2c[nH]c3ncc(-c4ccc(C5CCN(C(=O)CCOCCOCCOc6cccc7c6C(=O)N(C6CCC(=O)NC6=O)C7=O)CC5)cc4)nc23)ccc1C(=O)N(C)C (stereo not given)
(Q) Cc1cc(-c2c[nH]c3ncc(-c4ccc(C5CCN(C6CN(c7ccc8c(c7)C(=O)N(C7CCC(=O)NC7=O)C8=O)C6)CC5)cc4)nc23)ccc1C(=O)N(C)C (stereo not given)
(R) Cc1cc(-c2c[nH]c3ncc(-c4ccc(N5CCN(CC6CCN(c7ccc8c(c7)C(=O)N(C7CCC(=O)NC7=O)C8=O)CC6)CC5)cc4)nc23)ccc1C(=O)N(C)C (stereo not given)
## Input Sort these compounds on Tmax so the largest reading comes first. Kindly provide the labels arranged according to the requested ordering.
## Output R, Q, P
(R: 4 h, Q: 1 h, P: 0.5 h)

====

Assay: Metabolic stability in human liver microsomes assessed as microsomal intrinsic clearance
Assay type: ADME, Microsome
Details: read-out: CLH
reported-metric: CLint scaled (mL/min/kg)
# number only, unit mL/min/kg dropped from output

## Input I am curious: what CLint scaled value has been reported for Cc1cc(-c2c[nH]c3ncc(-c4ccc(C5CCN(C6CN(c7ccc8c(c7)C(=O)N(C7CCC(=O)NC7=O)C8=O)C6)CC5)cc4)nc23)ccc1C(=O)N(C)C (stereo unspecified) ?
## Output 5.54

====

Experiment: Metabolic stability in human liver microsomes assessed as half life
Assay type: ADME, Microsome
reported-metric: half-life (min)
# number only, unit min dropped from output

## Input I am curious: what half-life value has been reported for Cc1cc(-c2c[nH]c3ncc(-c4ccc(C5CCN(C6CN(c7ccc8c(c7)C(=O)N(C7CCC(=O)NC7=O)C8=O)C6)CC5)cc4)nc23)ccc1C(=O)N(C)C (stereo unspecified) ?
## Output 990

====

Assay: Metabolic stability in human liver microsomes assessed as hepatic extraction ratio
Format: ADME, Microsome
Settings: read-out: ERH
reported-metric: hepatic extraction ratio
Write the number on its own, no unit after it.

## Input I am curious: what hepatic extraction ratio value has been reported for Cc1cc(-c2c[nH]c3ncc(-c4ccc(C5CCN(C6CN(c7ccc8c(c7)C(=O)N(C7CCC(=O)NC7=O)C8=O)C6)CC5)cc4)nc23)ccc1C(=O)N(C)C (stereo unspecified) ?
## Output 0.058

====

Target: Protein cereblon/Mitogen-activated protein kinase kinase kinase kinase 1 (Homo sapiens, UniProt Q92918+Q96SW2)
Sequence (Q92918 whole entry): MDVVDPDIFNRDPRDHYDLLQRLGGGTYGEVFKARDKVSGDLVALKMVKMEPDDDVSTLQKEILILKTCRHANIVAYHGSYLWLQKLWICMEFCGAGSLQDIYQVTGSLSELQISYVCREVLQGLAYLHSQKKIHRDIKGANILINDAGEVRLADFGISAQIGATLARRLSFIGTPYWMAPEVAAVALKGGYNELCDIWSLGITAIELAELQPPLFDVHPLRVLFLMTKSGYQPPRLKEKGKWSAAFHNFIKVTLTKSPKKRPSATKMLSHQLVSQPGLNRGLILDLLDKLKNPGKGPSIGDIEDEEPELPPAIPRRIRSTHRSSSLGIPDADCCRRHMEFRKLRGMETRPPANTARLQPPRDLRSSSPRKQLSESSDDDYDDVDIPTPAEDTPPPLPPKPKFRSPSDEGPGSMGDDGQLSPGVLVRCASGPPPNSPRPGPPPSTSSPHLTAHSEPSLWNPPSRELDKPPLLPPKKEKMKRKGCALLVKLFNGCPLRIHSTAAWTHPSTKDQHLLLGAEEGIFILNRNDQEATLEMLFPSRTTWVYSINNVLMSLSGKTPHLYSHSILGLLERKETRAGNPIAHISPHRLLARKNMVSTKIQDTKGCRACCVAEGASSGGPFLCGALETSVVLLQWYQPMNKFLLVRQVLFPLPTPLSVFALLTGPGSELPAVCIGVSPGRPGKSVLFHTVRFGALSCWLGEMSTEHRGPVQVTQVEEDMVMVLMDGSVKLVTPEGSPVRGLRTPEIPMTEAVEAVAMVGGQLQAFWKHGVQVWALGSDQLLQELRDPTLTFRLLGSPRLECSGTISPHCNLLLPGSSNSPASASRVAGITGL
Sequence (Q96SW2 whole entry): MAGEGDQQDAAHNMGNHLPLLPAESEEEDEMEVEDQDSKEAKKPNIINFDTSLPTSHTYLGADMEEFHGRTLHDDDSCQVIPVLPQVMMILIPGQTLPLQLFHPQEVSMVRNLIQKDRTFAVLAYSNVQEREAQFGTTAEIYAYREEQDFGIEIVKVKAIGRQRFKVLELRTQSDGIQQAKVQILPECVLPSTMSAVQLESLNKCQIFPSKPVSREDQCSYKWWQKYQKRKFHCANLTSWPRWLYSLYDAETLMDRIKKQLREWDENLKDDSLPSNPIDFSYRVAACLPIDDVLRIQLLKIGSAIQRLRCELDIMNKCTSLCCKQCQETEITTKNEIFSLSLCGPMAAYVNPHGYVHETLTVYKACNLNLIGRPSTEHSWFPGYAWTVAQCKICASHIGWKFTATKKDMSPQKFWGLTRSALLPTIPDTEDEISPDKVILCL
Assay: PROTAC activity at CRBN/HPK1 in human Jurkat cells assessed as degradation of HPK1 protein incubated for 24 hrs by Western blotting analysis
Format: cell-based
reported-metric: DC50 (nM)

• Cc1cc(-c2c[nH]c3ncc(-c4ccc(C5CCN(C(=O)C6CCN(c7ccc8c(c7)C(=O)N(C7CCC(=O)NC7=O)C8=O)CC6)CC5)cc4)nc23)ccc1C(=O)N(C)C (configuration not stated) = 1750
• Cc1cc(-c2c[nH]c3ncc(-c4ccc(C5CCN(C(=O)CCOCCOCCOc6cccc7c6C(=O)N(C6CCC(=O)NC6=O)C7=O)CC5)cc4)nc23)ccc1C(=O)N(C)C (configuration not stated) = 245
• Cc1cc(-c2c[nH]c3ncc(-c4ccc(N5CCN(CC6CN(c7ccc8c(c7)C(=O)N(C7CCC(=O)NC7=O)C8=O)C6)CC5)cc4)nc23)ccc1C(=O)N(C)C (configuration not stated) = 134
• Cc1cc(-c2c[nH]c3ncc(-c4ccc(C5CCN(C6CN(c7ccc8c(c7)C(=O)N(C7CCC(=O)NC7=O)C8=O)C6)CC5)cc4)nc23)ccc1C(=O)N(C)C (configuration not stated) = 4.5

(1) Cc1cc(-c2c[nH]c3ncc(-c4ccc(C5CCN(C(=O)CCNc6cccc7c6C(=O)N(C6CCC(=O)NC6=O)C7=O)CC5)cc4)nc23)ccc1C(=O)N(C)C (configuration not stated)
(2) Cc1cc(-c2c[nH]c3ncc(-c4ccc(C5CCN(C6CN(C7CN(c8ccc9c(c8)C(=O)N(C8CCC(=O)NC8=O)C9=O)C7)C6)CC5)cc4)nc23)ccc1C(=O)N(C)C (configuration not stated)
(3) Cc1cc(-c2c[nH]c3ncc(-c4ccc(N5CCN(CC6CCN(c7ccc8c(c7)C(=O)N(C7CCC(=O)NC7=O)C8=O)CC6)CC5)cc4)nc23)ccc1C(=O)N(C)C (configuration not stated)
## Input Arrange the 3 compounds by rising DC50, starting with the smallest. Kindly provide the labels arranged according to the requested ordering.
## Output 3, 2, 1
(3: 33.9 nM, 2: 295 nM, 1: 962 nM)
